Target: T1, monomeric cynomolgus monkey CSF1R ectodomain protein (cynomolgus monkey, UniProt P07333 20-517 (human entry))
T1 construct: also called monomeric cyno CSF1R; Cyno CSF1R
T1 chain: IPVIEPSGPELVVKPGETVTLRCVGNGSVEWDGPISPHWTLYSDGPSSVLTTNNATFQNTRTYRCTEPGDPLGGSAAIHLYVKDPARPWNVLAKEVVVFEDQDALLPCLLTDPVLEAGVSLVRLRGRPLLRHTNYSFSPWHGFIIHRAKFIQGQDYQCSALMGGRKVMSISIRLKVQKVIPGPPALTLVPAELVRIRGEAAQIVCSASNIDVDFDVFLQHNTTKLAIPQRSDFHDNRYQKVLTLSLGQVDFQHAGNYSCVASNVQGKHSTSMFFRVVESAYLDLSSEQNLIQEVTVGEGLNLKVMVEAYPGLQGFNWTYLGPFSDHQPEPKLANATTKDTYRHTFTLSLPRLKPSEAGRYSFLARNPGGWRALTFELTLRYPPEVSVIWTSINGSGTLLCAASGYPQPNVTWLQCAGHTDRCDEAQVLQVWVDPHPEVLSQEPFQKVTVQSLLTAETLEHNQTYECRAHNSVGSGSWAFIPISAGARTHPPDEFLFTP
Assay: SPR Biacore, IgG captured, monomeric CSF1R analyte
measuredQuantity: kon (M⁻¹ s⁻¹)
The answer is to be given in M⁻¹ s⁻¹; state only the numeric part.

[[record]]
binder = "MH12 (antibody, human IgG4, V domains shown, Deimmunized MH5 derivative, human IgG4(S228P)/Ckappa IgG; also called mAb-4) VH: QVQLVQSGAEVKKPGSSVKVSCKASGYTFSSNYMIWVRQAPGQGLEWMGDINPYNGGANYAQKFQGRVTITADESTSTAYMELSSLRSEDTAVYYCAREGPYFSNLYVMDYWGQGTLVTVSS VL: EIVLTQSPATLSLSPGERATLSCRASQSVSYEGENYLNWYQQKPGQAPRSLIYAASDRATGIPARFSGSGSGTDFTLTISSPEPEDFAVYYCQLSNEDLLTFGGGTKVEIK"
measuredquantity = "kon"
endpointunit = "M⁻¹ s⁻¹"
numericresult = "1.3e+06"


Per the record, murine anti-CSF1R antibody 0301 (mu0301), v-domains in human IgG4(S228P) format (antibody, V domains shown) VH: EVQLQQSGPELVRPGASVKMSCKASGYTFTDNYMIWVKQSHGKSLEWIGDINPYNGGTTFNQKFKGKATLTVEKSSSTAYMQLNSLTSEDSAVYYCARESPYFSNLYVMDYWGQGTSVTVSS VL: NIVLTQSPASLAVSLGQRATISCKASQSVDYDGDNYMNWYQQKPGQPPKLLIYAASNLESGIPARFSGSGSGTDFTLNIHPVEEEDAATYYCHLSNEDLSTFGGGTKLEIK has kon of 740000

# binder MH40 (antibody, human IgG4, V domains shown, Deimmunized MH5 derivative, human IgG4(S228P)/Ckappa IgG) VH: QVQLVQSGAEVKKPGSSVKVSCKASGYTFSSHYMIWVRQAPGQGLEWMGDINPYNGGANYAQKFQGRVTITADESTSTAYMELSSLRSEDTAVYYCAREGPYFSNLYVMDYWGRGTLVTVSS VL: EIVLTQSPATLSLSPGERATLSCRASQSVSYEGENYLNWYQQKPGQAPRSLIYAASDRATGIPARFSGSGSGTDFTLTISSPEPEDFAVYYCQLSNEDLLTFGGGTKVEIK ; its kon = 1.06e+06
